# activity coefficient annotations
# experimental_protocol: activity coefficient (dimensionless); of the first substance listed, at infinite dilution; xn = mol fraction of the nth substance listed
# test_context: 348.2 K; 101 kPa; Liquid; Chromatography; x1 = 0

Supply reported activity coefficient belonging to this molecule: CC(C)O [propan-2-ol] + CN1CCCC1=O
0.639

Supply reported activity coefficient belonging to this molecule: C#CCCCC [1-hexyne] + CN1CCCC1=O
1.57

###

# activity coefficient annotations
# experimental_protocol: activity coefficient (dimensionless); of the first substance listed, at infinite dilution; xn = mol fraction of the nth substance listed
# test_context: 348.2 K; 101 kPa; Liquid; Chromatography; x1 = 0
Answer with a bare number; do not write a unit.

Use these answered entries as a reference point.
>>> measured_result("Cc1ccccc1 [toluene] + CN1CCCC1=O")
1.35
>>> measured_result("C=CCCCCCC [oct-1-ene] + CN1CCCC1=O")
7.6
>>> measured_result("C=CCCCCC [1-heptene] + CN1CCCC1=O")
6.24
>>> measured_result("CCO [ethanol] + CN1CCCC1=O")
0.605
>>> measured_result("CCCCCCC [heptane] + O=CN1CCOCC1")
27.5
>>> measured_result("CCCCCCCC [octane] + CN1CCCC1=O")
13.2
>>> measured_result("C#CCCCCC [1-heptyne] + O=CN1CCOCC1")
3.83
>>> measured_result("CCCO [propan-1-ol] + CN1CCCC1=O")
0.552

Supply reported activity coefficient belonging to this molecule: c1ccccc1 [benzene] + O=CN1CCOCC1
1.82

Supply reported activity coefficient belonging to this molecule: C1CCCCCC1 [cycloheptane] + O=CN1CCOCC1
12.7

###

# activity coefficient annotations
# experimental_protocol: activity coefficient (dimensionless); of the first substance listed, at infinite dilution; xn = mol fraction of the nth substance listed
# test_context: 363.2 K; 101 kPa; Liquid; Chromatography; x1 = 0

>>> measured_result("C1CCCCCC1 [cycloheptane] + O=CN1CCOCC1")
10.5
>>> measured_result("C=CCCCC [hex-1-ene] + CN1CCCC1=O")
5.57
>>> measured_result("CCCCCCCCC [nonane] + CN1CCCC1=O")
12
>>> measured_result("CCCO [propan-1-ol] + O=CN1CCOCC1")
0.913
>>> measured_result("C1CCCCCC1 [cycloheptane] + CN1CCCC1=O")
6.8

Supply reported activity coefficient belonging to this compound: CC(C)O [propan-2-ol] + O=CN1CCOCC1
0.933

Supply reported activity coefficient belonging to this compound: CCCO [propan-1-ol] + CN1CCCC1=O
0.548

Supply reported activity coefficient belonging to this compound: C1CCCC1 [cyclopentane] + O=CN1CCOCC1
7.59

Supply reported activity coefficient belonging to this compound: CCc1ccccc1 [ethylbenzene] + O=CN1CCOCC1
3.21

Supply reported activity coefficient belonging to this compound: C=CCCCCCC [oct-1-ene] + CN1CCCC1=O
6.7

Supply reported activity coefficient belonging to this compound: CCCCCCC [heptane] + O=CN1CCOCC1
25.9

Supply reported activity coefficient belonging to this compound: C1CCCC1 [cyclopentane] + CN1CCCC1=O
4.55

Supply reported activity coefficient belonging to this compound: c1ccccc1 [benzene] + CN1CCCC1=O
1.1

Supply reported activity coefficient belonging to this compound: C=CCCCCC [1-heptene] + CN1CCCC1=O
6.28

Supply reported activity coefficient belonging to this compound: C1CCCCCCC1 [cyclooctane] + CN1CCCC1=O
6.06

Supply reported activity coefficient belonging to this compound: CCO [ethanol] + O=CN1CCOCC1
0.914

Supply reported activity coefficient belonging to this compound: CCCCCC [hexane] + CN1CCCC1=O
8.51

Supply reported activity coefficient belonging to this compound: Cc1ccccc1 [toluene] + O=CN1CCOCC1
2.55

Supply reported activity coefficient belonging to this compound: CCO [ethanol] + CN1CCCC1=O
0.618

Supply reported activity coefficient belonging to this compound: CCCCCCC [heptane] + CN1CCCC1=O
10

Supply reported activity coefficient belonging to this compound: C#CCCC [1-pentyne] + O=CN1CCOCC1
2.38

Supply reported activity coefficient belonging to this compound: C=CCCCCC [1-heptene] + O=CN1CCOCC1
13.3

Supply reported activity coefficient belonging to this compound: C#CCCCCC [1-heptyne] + O=CN1CCOCC1
3.68

Supply reported activity coefficient belonging to this compound: C=CCCC [1-pentene] + CN1CCCC1=O
4.99

Supply reported activity coefficient belonging to this compound: CCCCC [pentane] + O=CN1CCOCC1
15.3

Supply reported activity coefficient belonging to this compound: CCc1ccccc1 [ethylbenzene] + CN1CCCC1=O
1.61

###

# experimental_protocol: activity coefficient (dimensionless); of the first substance listed, at infinite dilution; xn = mol fraction of the nth substance listed
# test_context: 348.2 K; 101 kPa; Liquid; Chromatography; x1 = 0
# activity coefficient annotations
Answer with a bare number; do not write a unit.

Use these answered entries as a reference point.
>>> measured_result("C#CCCC [1-pentyne] + O=CN1CCOCC1")
2.58
>>> measured_result("CCCCCC [hexane] + O=CN1CCOCC1")
21.5

Switching to the query record.
Supply reported activity coefficient belonging to this compound: C=CCCCC [hex-1-ene] + CN1CCCC1=O
5.44

###

# experimental_protocol: activity coefficient (dimensionless); of the first substance listed, at infinite dilution; xn = mol fraction of the nth substance listed
# test_context: 348.2 K; 101 kPa; Liquid; Chromatography; x1 = 0
experimental_endpoint: activity coefficient
Answer with a bare number; do not write a unit.

>>> measured_result("CCCCC [pentane] + O=CN1CCOCC1")
17.3
>>> measured_result("C1CCCC1 [cyclopentane] + O=CN1CCOCC1")
8.75
>>> measured_result("CCCCC [pentane] + CN1CCCC1=O")
8.11

Supply reported activity coefficient belonging to this compound: C1CCCCCC1 [cycloheptane] + CN1CCCC1=O
6.71

Supply reported activity coefficient belonging to this compound: CC(C)O [propan-2-ol] + O=CN1CCOCC1
1.29

###

# experimental_protocol: activity coefficient (dimensionless); of the first substance listed, at infinite dilution; xn = mol fraction of the nth substance listed
# test_context: 348.2 K; 101 kPa; Liquid; Chromatography; x1 = 0
# activity coefficient annotations

Use these answered entries as a reference point.
>>> measured_result("C#CCCCCCC [1-octyne] + CN1CCCC1=O")
2.15
>>> measured_result("C#CCCC [1-pentyne] + CN1CCCC1=O")
1.41
>>> measured_result("C#CCCCCCC [1-octyne] + O=CN1CCOCC1")
4.9
>>> measured_result("CO [methanol] + O=CN1CCOCC1")
0.847

Switching to the query record.
Supply reported activity coefficient belonging to this molecule: C1CCCCCCC1 [cyclooctane] + O=CN1CCOCC1
14.5

###

# experimental_protocol: activity coefficient (dimensionless); of the first substance listed, at infinite dilution; xn = mol fraction of the nth substance listed
# test_context: 363.2 K; 101 kPa; Liquid; Chromatography; x1 = 0
Decision: activity coefficient compared against 2; not below it gives True, below it gives False.

Observe how each entry below is paired with its result.
>>> class_name("C#CCCCC [1-hexyne] + CN1CCCC1=O")
"False"
>>> class_name("C=CCCCCCC [oct-1-ene] + O=CN1CCOCC1")
"True"
>>> class_name("CCCCCCCC [octane] + O=CN1CCOCC1")
"True"
>>> class_name("CC(C)O [propan-2-ol] + CN1CCCC1=O")
"False"
>>> class_name("C=CCCC [1-pentene] + O=CN1CCOCC1")
"True"
>>> class_name("C1CCCCC1 [cyclohexane] + O=CN1CCOCC1")
"True"
>>> class_name("CCCCCCCC [octane] + CN1CCCC1=O")
"True"
>>> class_name("CO [methanol] + CN1CCCC1=O")
"False"
>>> class_name("C#CCCCC [1-hexyne] + O=CN1CCOCC1")
"True"
>>> class_name("C1CCCCC1 [cyclohexane] + CN1CCCC1=O")
"True"

Confirm if activity coefficient reported for the molecule CO [methanol] + O=CN1CCOCC1 is 2 or above.
False

Confirm if activity coefficient reported for the molecule CCCCC [pentane] + CN1CCCC1=O is 2 or above.
True

Confirm if activity coefficient reported for the molecule CCCCCCCCC [nonane] + O=CN1CCOCC1 is 2 or above.
True

Confirm if activity coefficient reported for the molecule C=CCCCC [hex-1-ene] + O=CN1CCOCC1 is 2 or above.
True

Confirm if activity coefficient reported for the molecule CCCCCC [hexane] + O=CN1CCOCC1 is 2 or above.
True

Confirm if activity coefficient reported for the molecule C1CCCCCCC1 [cyclooctane] + O=CN1CCOCC1 is 2 or above.
True
